Reported values of Accumulative excretion percentage for individual entries
experiment.description: Urinary excretion study in rats after oral NS, SF or CNS (LC–MS/MS)
Assay type: in vivo
test.settings: rat urine, oral NS 60 mg/kg, 2 h
assay.readout: Accumulative excretion percentage (%)

compound	unit.spec	meas.value
CC(C)=CCC[C@](C)(O[C@@H]1O[C@H](CO[C@@H]2O[C@H](CO)[C@@H](O)[C@H](O)[C@H]2O)[C@@H](O)[C@H](O)[C@H]1O)[C@H]1CC[C@]2(C)[C@@H]1[C@H](O)C[C@@H]1[C@@]3(C)CC[C@H](O[C@@H]4O[C@H](CO)[C@@H](O)[C@H](O)[C@H]4O[C@@H]4O[C@H](CO)[C@@H](O)[C@H](O)[C@H]4O)C(C)(C)[C@@H]3CC[C@]12C [ginsenoside Rb1]	%	0.002
CC(C)=CCC[C@](C)(O[C@@H]1O[C@H](CO)[C@@H](O)[C@H](O)[C@H]1O)[C@H]1CC[C@]2(C)[C@@H]1[C@H](O)C[C@@H]1[C@@]3(C)CC[C@H](O)C(C)(C)[C@@H]3[C@@H](O[C@@H]3O[C@H](CO)[C@@H](O)[C@H](O)[C@H]3O)C[C@]12C [ginsenoside Rg1]	%	0.142
CC(C)=CCC[C@](C)(O[C@@H]1O[C@H](CO)[C@@H](O)[C@H](O)[C@H]1O)[C@H]1CC[C@]2(C)[C@@H]1[C@H](O)C[C@@H]1[C@@]3(C)CC[C@H](O)C(C)(C)[C@@H]3[C@@H](O[C@@H]3O[C@H](CO)[C@@H](O)[C@H](O)[C@H]3O[C@@H]3O[C@@H](C)[C@H](O)[C@@H](O)[C@H]3O)C[C@]12C [ginsenoside Re]	%	0.064
CC(C)=CCC[C@](C)(O[C@@H]1O[C@H](CO)[C@@H](O)[C@H](O)[C@H]1O)[C@H]1CC[C@]2(C)[C@@H]1[C@H](O)C[C@@H]1[C@@]3(C)CC[C@H](O[C@@H]4O[C@H](CO)[C@@H](O)[C@H](O)[C@H]4O[C@@H]4O[C@H](CO)[C@@H](O)[C@H](O)[C@H]4O)C(C)(C)[C@@H]3CC[C@]12C [ginsenoside Rd]	%	0.002

----------
Reported Accumulative excretion amount is given for each of the following compounds.
experiment.description: Urinary excretion study in rats after oral NS, SF or CNS (LC–MS/MS)
Type: in vivo
test.settings: rat urine, oral NS 60 mg/kg, 8 h

compound	Accumulative excretion amount
CC(C)=CCC[C@](C)(O[C@@H]1O[C@H](CO)[C@@H](O)[C@H](O)[C@H]1O)[C@H]1CC[C@]2(C)[C@@H]1[C@H](O)C[C@@H]1[C@@]3(C)CC[C@H](O[C@@H]4O[C@H](CO)[C@@H](O)[C@H](O)[C@H]4O[C@@H]4O[C@H](CO)[C@@H](O)[C@H](O)[C@H]4O)C(C)(C)[C@@H]3CC[C@]12C [ginsenoside Rd]	0.097 ± 0.129 µg
CC(C)=CCC[C@](C)(O[C@@H]1O[C@H](CO)[C@@H](O)[C@H](O)[C@H]1O)[C@H]1CC[C@]2(C)[C@@H]1[C@H](O)C[C@@H]1[C@@]3(C)CC[C@H](O)C(C)(C)[C@@H]3[C@@H](O[C@@H]3O[C@H](CO)[C@@H](O)[C@H](O)[C@H]3O)C[C@]12C [ginsenoside Rg1]	11.931 ± 4.568 µg
CC(C)=CCC[C@](C)(O[C@@H]1O[C@H](CO[C@@H]2O[C@H](CO)[C@@H](O)[C@H](O)[C@H]2O)[C@@H](O)[C@H](O)[C@H]1O)[C@H]1CC[C@]2(C)[C@@H]1[C@H](O)C[C@@H]1[C@@]3(C)CC[C@H](O[C@@H]4O[C@H](CO)[C@@H](O)[C@H](O)[C@H]4O[C@@H]4O[C@H](CO)[C@@H](O)[C@H](O)[C@H]4O)C(C)(C)[C@@H]3CC[C@]12C [ginsenoside Rb1]	0.863 ± 1.044 µg
CC(C)=CCC[C@](C)(O[C@@H]1O[C@H](CO)[C@@H](O)[C@H](O)[C@H]1O)[C@H]1CC[C@]2(C)[C@@H]1[C@H](O)C[C@@H]1[C@@]3(C)CC[C@H](O)C(C)(C)[C@@H]3[C@@H](O[C@@H]3O[C@H](CO)[C@@H](O)[C@H](O)[C@H]3O[C@@H]3O[C@@H](C)[C@H](O)[C@@H](O)[C@H]3O)C[C@]12C [ginsenoside Re]	0.625 ± 0.321 µg
